Test system: HL-60(TB) leukemia
Assay: NCI-60 one-dose screen, 48 h (100 = growth as untreated, 0 = no growth, -100 = all killed)
Details: 10 µM unless noted
The panel holds about 83,000 compounds, 20% with a hit somewhere; the sample as a whole holds those more often.

compound	growth / %
CCc1ccc(-c2ccc(-n3nc(C)c4c(N)nc(Cc5ccccc5)nc43)cc2)cc1	65
Cc1ccc(C2CC(c3nc(-c4ccc(Cl)cc4)oc3C)=NN2C(=O)c2ccncc2)cc1 (configuration not stated)	97.7
COC(=O)/C(Br)=C/c1c[nH]c2ccc(Br)cc12	67.9
COC(=O)c1nc(-c2ccccc2)oc1S(=O)(=O)NCC(c1ccc(Cl)cc1)N1CCOCC1 (configuration not stated)	4.12
CC[C@@H](C(=O)[C@@H](C)[C@@H](O)[C@H](C)[C@@H]1O[C@@H]([C@@H](CC)C(=O)O)CC[C@@H]1C)[C@H]1OC2(C=C[C@@H](O)[C@]3(CC[C@@](C)([C@H]4CC[C@](O)(CC)[C@H](C)O4)O3)O2)[C@H](C)C[C@@H]1C (some centres not stated)	-45.6
O=C(NC1CCNCC1)c1[nH]ncc1NC(=O)c1c(Cl)cccc1Cl	-31.8
O=C1Nc2cc(-c3cccc([N+](=O)[O-])c3)ccc2/C1=C/c1ccc[nH]1	101
COc1cccc(C(=O)Nc2ccc(CN3CCc4nc5cc(OC)c(OC)cc5cc43)cc2)c1	60
CC[C@]1(O)CC2CN(CCc3c([nH]c4ccccc34)C(C(=O)OC)(c3cc4c(cc3OC)N(C=O)[C@H]3[C@@](O)(C(=O)OC)[C@H](OC(C)=O)[C@]5(CC)[C@@H]6C[C@@H]6CN6CC[C@]43[C@@H]65)C2)C1 (some centres not stated)	0.642
O=C(NC1CCCCC1)c1ccc(Nc2ncnc3c2cnn3-c2ccccc2)cc1	106
O=C(Oc1ccc(Cl)cc1[N+](=O)[O-])Oc1ccc(Cl)cc1[N+](=O)[O-]	95.7
COc1ccc2nc(NC(=O)c3cccnc3Nc3cc(OC)c(OC)c(OC)c3)sc2c1	51.8
c1cc(OCCN2CCCCC2)ccc1CNc1ccc2nc(CCC3CCCCC3)[nH]c2c1	-31.6
CCCCNCC(=O)Nc1ccc(C(=O)OCC)cc1	86.9
CC[C@]1(O)C[C@@H]2CN(CCc3c([nH]c4ccccc34)[C@@](C(=O)OC)(c3cc4c(cc3OC)N(C)[C@H]3[C@@](O)(C(=O)OC)[C@H](OC(C)=O)[C@]5(CC)C=CCN6CC[C@]43[C@@H]65)C2)C1	-7.59
O=C(Nc1ccc([N+](=O)[O-])cc1)c1cc2ccccc2cc1O	-16.7
COc1ccc(C2C(C#N)=C(N)Oc3c2sc2c(Br)cccc32)cc1 (configuration not stated)	-9.13

----------
Tested on: NCI-H322M lung
Assay: NCI-60 one-dose screen, 48 h (100 = growth as untreated, 0 = no growth, -100 = all killed)
Conditions: 10 µM unless noted
The panel holds about 83,000 compounds, 20% with a hit somewhere; the sample as a whole holds those more often. The source made the active and inactive calls. How the source made its calls: active means growth percent below 10; inactive means the rest.
Items are presented alongside their recorded growth.
observed property: growth

compound	observed property	result
CCN1CC2(CN(CC)C1=S)C(=O)NC(=O)NC2=O	growth	107% (inactive)
O=c1cc[nH]c(=O)o1	growth	105% (inactive)
CSc1ccccc1NP1(=O)OCC(C)([N+](=O)[O-])CO1 (stereo not given)	growth	126% (inactive)
C[CH2][Sn]([CH2]C)([CH2]C)[NH]S(=O)(=O)c1ccc(C)cc1	growth	111% (inactive)
CC(=O)C1CCC2C3CC=C4CC(OC(=O)Cc5ccc(N(CCCl)CCCl)cc5)CCC4(C)C3CCC12C (stereo not given)	growth	119% (inactive)
CNc1ccc(C(=O)CC(O)CCC(C)C2OC(=O)CC(O)CC(=O)CC(O)CC(O)CC(O)CC(O)CC3(O)CC(O)C(C(=O)OC)C(CC(O[C@@H]4O[C@H](C)[C@@H](O)[C@H](N)[C@@H]4O)/C=C/C=C/C=C/C=C/C=C/C=C/C=C/C2C)O3)cc1 (stereo not given in full)	growth	1.05% (active)
COc1cccc2c1C(=O)c1c(O)c3c(c(O)c1C2=O)CC(O)(/C(C)=N/NC(=O)CCC(=O)N/N=C(\C)C1(O)Cc2c(O)c4c(c(O)c2C(OC2CC(N)C(O)C(C)O2)C1)C(=O)c1c(OC)cccc1C4=O)CC3OC1CC(N)C(O)C(C)O1 (stereo not given)	growth	-31.6% [5 µM] (active)
Cc1cccc(N(C)c2cccc3c2C(=O)[Se]C3)c1C	growth	72.8% (inactive)
CC(C)CCC1(CCO)C(=O)NC(=S)NC1=O	growth	105% (inactive)
CCOc1cc(/C=N\Nc2nnc(C)n2N)c(C)cc1N(CCCl)CCCl	growth	11.3% (inactive)
O=S(=O)(O)c1ccc(-c2ccc([As](=O)(O)O)cc2)cc1	growth	104% (inactive)
Cc1ccccc1O	growth	114% (inactive)
C[C@]12CC[C@H]3[C@@H](C[C@@H]4N=C(c5ccc(O)cc5)S[C@@]45C[C@H](O)CC[C@]35C)[C@@H]1CC[C@@H]2O	growth	92.8% (inactive)
CNC(=O)Oc1ccccc1	growth	107% (inactive)
COc1cc(NCCCCCN=C(N)N)c2ncccc2c1	growth	61.4% (inactive)
CCOc1c(Cl)cc(CNC(C)C(O)c2ccccc2)cc1OC (stereo not given)	growth	92% (inactive)
CC1COC(=O)C1 (stereo not given)	growth	100% (inactive)
CC1(C)CC2(CC(C)(C)c3cc(O)c(O)cc32)c2cc(O)c(O)cc21	growth	102% (inactive)
O=C(Nc1ccc(S(=O)(=O)F)cc1)Oc1ccccc1	growth	94.8% (inactive)
CC(C)Nc1ccc(Nc2ccccc2)cc1	growth	73.4% (inactive)
c1cnc2c(c1)ccc1ncccc12	growth	123% (inactive)
NC(Cc1ccc(O)cc1)C(=O)N/N=C/c1ccc(N(CCCl)CCCl)cc1 (stereo not given)	growth	102% (inactive)
COc1ccc(C(c2ccc(OC)cc2)C(Cl)(Cl)Cl)cc1	growth	106% (inactive)
Nc1ncnc2c1c(C(=O)NO)cn2C1OC(CO)C(O)C1O (stereo not given)	growth	3.28% (active)
O=C1NC(=O)C(=Cc2cn(Cc3ccccc3)c3ccccc23)C(=O)N1	growth	81.7% (inactive)
CNC(=O)Oc1cccc(OC)c1	growth	132% (inactive)
Cc1cc(C)nc(C)c1.[Cl][Hg][Cl]	growth	91.5% (inactive)
CC(=O)O[C@H]1CC[C@H]2[C@@H]3CC[C@H]4CC=C(C)C[C@]4(C)[C@H]3CC[C@]12C	growth	104% (inactive)
COc1ccc(-c2ccc(OC)c(OC)c2OC)cc1	growth	36% (inactive)
C=CC(=O)NC(O)C(Cl)(Cl)Cl (stereo not given)	growth	85% (inactive)
